# procedure.summary: Pharmacokinetic evaluation in mice (IV and PO)
# Assay type: in vivo, male CD-1 mice
# experimental.setup: male, CD-1 nude, mouse, plasma, IV 2 mg/kg, read-out: T1/2 (elimination half-life) (converted)
reported.endpoint: half-life (h)
Please respond with the number in h and leave the unit unwritten.

Q) Query: half-life; subject: COc1cc(OC)c(F)c(Cc2c[nH]c3ncc(-c4cnn(CCO)c4)cc23)c1F [Embodiment 46]
A) 1.1

Q) One more compound: COc1nc(OC)c(F)c(Cc2c[nH]c3ncc(-c4cnn(CCO)c4)cc23)c1F [Embodiment 48]
A) 1.1

====

Below are compounds with their IC50 as measured on human FGFR1 (Homo sapiens, UniProt P11362).
Sequence (P11362 22-822): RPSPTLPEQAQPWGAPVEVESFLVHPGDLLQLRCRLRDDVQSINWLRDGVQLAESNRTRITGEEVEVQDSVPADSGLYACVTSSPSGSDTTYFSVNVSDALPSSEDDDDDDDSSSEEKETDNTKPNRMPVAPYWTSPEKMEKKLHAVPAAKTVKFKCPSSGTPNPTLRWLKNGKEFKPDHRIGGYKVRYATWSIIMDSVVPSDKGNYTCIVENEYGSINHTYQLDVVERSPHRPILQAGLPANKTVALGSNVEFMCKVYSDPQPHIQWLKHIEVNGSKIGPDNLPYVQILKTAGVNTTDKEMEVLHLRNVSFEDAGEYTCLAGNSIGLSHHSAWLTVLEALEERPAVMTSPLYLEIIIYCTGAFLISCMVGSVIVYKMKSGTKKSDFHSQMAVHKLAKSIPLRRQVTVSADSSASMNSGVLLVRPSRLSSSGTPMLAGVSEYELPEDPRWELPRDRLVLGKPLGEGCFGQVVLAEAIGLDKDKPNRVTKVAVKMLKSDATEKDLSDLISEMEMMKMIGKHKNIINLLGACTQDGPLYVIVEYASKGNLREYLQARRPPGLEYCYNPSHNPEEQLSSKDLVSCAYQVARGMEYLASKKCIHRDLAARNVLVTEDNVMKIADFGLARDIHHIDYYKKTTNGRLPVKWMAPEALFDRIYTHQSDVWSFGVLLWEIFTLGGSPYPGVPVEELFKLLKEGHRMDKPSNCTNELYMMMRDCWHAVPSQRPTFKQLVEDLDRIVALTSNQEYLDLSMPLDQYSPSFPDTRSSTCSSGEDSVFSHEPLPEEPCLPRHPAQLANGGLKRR
Structures can show the parent of a compound that is named as a salt.
Please respond with the number in nM and leave the unit unwritten.

Q) # value lookup — system human FGFR1 (Homo sapiens, UniProt P11362), readout IC50, item COc1cc(OC)c(F)c(Cc2c[nH]c3ncc(-c4ccc5c(c4)NC(=O)C54CCN(C)CC4)cc23)c1F [Trifluoroacetate salt of embodiment 56]
A) 1.9

Q) One more compound: CCN1CCC(n2cc(-c3cnc4[nH]cc(Cc5c(F)c(OC)cc(OC)c5F)c4c3)c(C#N)n2)CC1 [Hydrochloride of embodiment 42]
A) 1.4

Q) One more compound: COc1cc(OC)c(F)c(Cc2c[nH]c3ncc(-c4cnn(CC5CNC5)c4)cc23)c1F [Trifluoroacetate salt of embodiment 29]
A) 1.9

Q) One more compound: COc1cc(OC)c(F)c(Cc2c[nH]c3ncc(-c4cnn(CCN(C)C)c4)cc23)c1F [Hydrochloride of embodiment 28]
A) 0.55
